tested on: SF-539 CNS; assay: NCI tumour cell line growth inhibition, 48 h
Give measured GI50 for each item. Keep answers brief.

Ask: // returns reported GI50 for input CCOC(=O)c1c(C)[nH]c(/C=C2\N=C(c3ccc[nH]3)C=C2OC)c1C
Reply: 60.6 nM

Ask: // returns reported GI50 for input COc1cccc(-c2nc(-c3ccc(NC(=O)c4ccccc4)cc3)[nH]c2-c2ccnc(Br)c2)c1
Reply: 1590 nM

Ask: // returns reported GI50 for input O=C(NC1CCN(Cc2ccccc2)CC1)c1cc(C(=O)NC2CCN(Cc3ccccc3)CC2)cc(C(=O)NC2CCN(Cc3ccccc3)CC2)c1
Reply: 865 nM

Ask: // returns reported GI50 for input N/C(=N\c1nc2ccccc2s1)NC(=O)Nc1ccccc1Cl
Reply: 85.3 nM

Ask: // returns reported GI50 for input O=C(Nc1ccc(Cl)cc1)c1cc2cc(F)ccc2cc1O
Reply: 1260 nM

Ask: // returns reported GI50 for input O=c1ccccc(-c2ccc(-c3ccco3)cc2)c1O
Reply: 703 nM

Ask: // returns reported GI50 for input O=C1/C(=C/c2ccccc2)CN(CCC(=O)N2C/C(=C\c3ccccc3)C(=O)/C(=C/c3ccccc3)C2)C/C1=C\c1ccccc1
Reply: 13900 nM

Ask: // returns reported GI50 for input C=C1SC(=Nc2ccccc2Cl)N(C(=O)c2sc3ccccc3c2Cl)C1(C)C
Reply: 14000 nM

Ask: // returns reported GI50 for input O=S(=O)(NCCCNc1cc(-c2cn(-c3ccccc3)nc2-c2cccc(O)c2)ccn1)c1cccc2ccccc12
Reply: 2430 nM

Ask: // returns reported GI50 for input COc1cc(/C=C2\CN(S(=O)(=O)c3ccc(C)cc3)C/C(=C\c3cc(CN4CCCCC4)c(O)c(OC)c3)C2=O)cc(CN2CCCCC2)c1O
Reply: 1740 nM

Ask: // returns reported GI50 for input NC(=O)c1cc(Cl)ccc1NC(=O)c1ccccc1-c1ccccc1
Reply: 319 nM

Ask: // returns reported GI50 for input CNC(=O)c1cncc(/C=C/c2c(C)cccc2C)c1
Reply: 14500 nM

====

tested on: KM12 colon; assay: NCI tumour cell line growth inhibition, 48 h
READOUT_TYPE: TGI

Ask: // returns reported TGI for input O=c1[nH]c2ccc(CC(=S)N3CCN(c4ccccc4)CC3)cc2o1
Reply: > 100 µM

Ask: // returns reported TGI for input O=C(N/N=C\c1ccc([N+](=O)[O-])cc1)c1ccccc1Nc1ccccc1C(=O)N/N=C/c1ccc([N+](=O)[O-])cc1
Reply: > 100 µM

Ask: // returns reported TGI for input COC(=O)[C@H](Cc1ccccc1)NP(=O)(O)OCC1OC(n2cc(C)c(=O)[nH]c2=O)CC1N=[N+]=[N-] (stereo not given in full)
Reply: > 100 µM

Ask: // returns reported TGI for input CC(=O)O[C@H]1CCC2[C@@H]3CCC4Nc5c(cnn5-c5ccccc5)C[C@]4(C)C3CC[C@@]21C (stereo not given in full)
Reply: 37.8 µM

Ask: // returns reported TGI for input S=P(c1ccccc1)(c1ccccc1)C1(C2(P(=S)(c3ccccc3)c3ccccc3)CC2)CC1
Reply: > 100 µM

====

Give measured TGI for each item. Keep answers brief.
test system: DU-145 prostate; experiment: NCI tumour cell line growth inhibition, 48 h

Ask: // returns reported TGI for input Cc1ccc(/C=N/Nc2nncc3ccccc23)s1
Reply: > 31.6 µM

Ask: // returns reported TGI for input c1ccc(/N=C2\c3ccccc3CN2c2ccccn2)nc1
Reply: > 100 µM

Ask: // returns reported TGI for input CN[C@@H](C)[C@H](OP(=O)(O)OC1[C@@H](O)[C@H](O)C(O)[C@H](O)[C@@H]1O)c1ccccc1 (some centres not stated)
Reply: > 100 µM

Ask: // returns reported TGI for input O=C1/C(=C/c2cccs2)NC(=S)N1CN1CCOCC1
Reply: > 100 µM

Ask: // returns reported TGI for input O=C(O)c1cc(O)c2c(c1)Cc1cccc(O)c1C2=O
Reply: > 100 µM

Ask: // returns reported TGI for input N#C[C@@]12CCCC(=O)[C@@H]1[C@H]1CCC[C@H]12
Reply: 28.8 µM

Ask: // returns reported TGI for input Nc1nc(N)c2nnn(C[C@H]3CC[C@@H](CO)C3)c2n1
Reply: > 100 µM

Ask: // returns reported TGI for input COc1ccc(C(=O)C(Br)C(Br)C(=O)O)cc1 (configuration not stated)
Reply: > 100 µM

Ask: // returns reported TGI for input COc1ccc(-c2nc(N)c3ncn(C4OC(CO)C(O)C4O)c3n2)cc1 (configuration not stated)
Reply: > 100 µM

Ask: // returns reported TGI for input CSc1ccc(/C=C2\N=C(c3ccccc3)N(c3nc4c(Cl)cc(Cl)cc4s3)C2=O)cc1
Reply: 93.7 µM

Ask: // returns reported TGI for input COc1cc(/C=C/C(=O)N[C@@H]2C(=O)N3[C@@H]2SC(C)(C)[C@@H]3C(=O)O)cc(OC)c1OC
Reply: > 100 µM

Ask: // returns reported TGI for input COc1ccc(CCc2ccc(O)c(C(=O)O)c2)cc1OC
Reply: > 100 µM

Ask: // returns reported TGI for input N=c1oc2ccc(Cl)cc2cc1C(=O)NCc1ccccc1
Reply: > 100 µM

Ask: // returns reported TGI for input CN(C)CCNC(=O)c1ccc(NCCCN(C)CCCNc2ccc(C(=O)NCCN(C)C)c3[nH]c4ccc([N+](=O)[O-])cc4c(=O)c23)c2c(=O)c3cc([N+](=O)[O-])ccc3[nH]c12
Reply: 0.641 µM

Ask: // returns reported TGI for input CSc1nncc2[nH]cnc12
Reply: > 100 µM

Ask: // returns reported TGI for input COc1ccc(C(C#N)NCCCCCCNC(C#N)c2ccc(OC)cc2)cc1 (configuration not stated)
Reply: > 100 µM

Ask: // returns reported TGI for input CC1(C)N=C(/C=N/O)C(C)(C)N1O
Reply: > 100 µM

Ask: // returns reported TGI for input O=c1[nH]c2ccc(CC(=S)N3CCN(c4ccccc4)CC3)cc2o1
Reply: > 100 µM

Ask: // returns reported TGI for input CCc1n[nH]c(=O)n1NC(=O)c1ccccc1C(=O)O
Reply: > 100 µM

Ask: // returns reported TGI for input S=C(c1c[nH]c2ccccc12)N1CCN(c2ccccc2)CC1
Reply: > 100 µM

Ask: // returns reported TGI for input C/C(=N\O)c1cccc(Nc2nc3ccccc3c3occc23)c1
Reply: 27.8 µM

Ask: // returns reported TGI for input O=C1CC2C(=O)C1C(C(=O)O)C2C(=O)O (configuration not stated)
Reply: > 100 µM

====

system: KM12 colon; test: NCI tumour cell line growth inhibition, 48 h
READOUT_TYPE: log10 of TGI (log10 of the value in µM)
# values: log10(TGI), units µM

Ask: // returns reported log10 of TGI for input COc1cc2cc(C(=O)N3CC(CCl)c4c3cc(N(C)C)c3ccccc43)[nH]c2c(OC)c1OC (stereo not drawn)
Reply: 0.04

Ask: // returns reported log10 of TGI for input CC1OC(O[C@H]2/C=C/C=C/C=C/C=C/C=C/C=C/C=C/[C@H](C)[C@@H](O)[C@@H](C)[C@H](C)OC(=O)C[C@H](O)C[C@H](O)CC[C@@H](O)[C@H](O)C[C@H](O)C[C@]3(O)C[C@H](O)[C@@H](C(=O)O)[C@H](C2)O3)C(O)C(N)C1O (stereo partly drawn)
Reply: 1.63

Ask: // returns reported log10 of TGI for input O=C1c2cccc3cc([N+](=O)[O-])cc(c23)C(=O)N1CCN1CCCC1
Reply: 0.96

Ask: // returns reported log10 of TGI for input C#Cc1cccc(Nc2ncnc3ccc(-c4cnc(Cl)c(NS(C)(=O)=O)c4)cc23)c1
Reply: 0.41

Ask: // returns reported log10 of TGI for input COc1ccccc1N=N/C(=N/NC(=O)c1ccc(C)cc1)c1ccc(N(CCC#N)CCC#N)cc1OC
Reply: 1.93

====

test system: HCC-2998 colon; experiment: NCI tumour cell line growth inhibition, 48 h
READOUT_TYPE: TGI

Ask: // returns reported TGI for input Cc1ccc(S(=O)(=O)/N=C(\[O-])C2=C(c3ccccc3)NN(C)c3nc4cccc[n+]4nc32)cc1
Reply: > 100 µM

Ask: // returns reported TGI for input COC1CC2C=CC3C4OC2(/C(C)=C/C(C)C(C(C)O)OC1=O)C3C(O)C(C)C4OC(=O)c1ccc[nH]1 (stereo unspecified)
Reply: > 100 µM

Ask: // returns reported TGI for input C[Si](C)(C)/C=C\CCCN1C(=O)CCC1=O
Reply: > 100 µM

Ask: // returns reported TGI for input O=c1ccccc(-c2ccc(-c3ccco3)cc2)c1O
Reply: 33.2 µM

Ask: // returns reported TGI for input Cc1ccc2c(N/N=C\c3ccco3)cc(C)nc2n1
Reply: 7.4 µM

Ask: // returns reported TGI for input CCn1c(-c2ccc(C)cc2)cs/c1=N\C(P(=O)(O)O)P(=O)(O)O
Reply: > 100 µM
